Attribution: ChEMBL document CHEMBL4196128

- Tested on: COLO 205
- method.summary: Antiproliferative activity against human COLO205 cells harboring BRAF V600E/D mutant measured after 4 days
- Assay type: functional, cell-based
- measurement.context: COLO 205, 96 h
# IC50 binned as low bin = under 30 nM, mid bin = from 30 nM up to 50 nM, high bin = 50 nM and over

Task item: Looking at `CS[C@]1(C(=O)Nc2ccc3[nH]nc(-c4ccc(OC(C)C)nc4)c3c2)CCN(CC(=O)N2CC=C(c3ccc(-c4ncn(C)n4)cc3)CC2)C1` , which class would you pick?
Reply: high bin

Task item: Again, but for `CS[C@@]1(C(=O)Nc2ccc3[nH]nc(-c4ccc(F)cc4)c3c2)CCN(CC(=O)N2CC=C(c3ccc(-c4ncccn4)cc3)CC2)C1`
Reply: mid bin

Task item: Again, but for `COc1cc(-c2n[nH]c3ccc(NC(=O)[C@]4(SC)CCN(CC(=O)N5CC=C(c6ccc(-c7ncn(C)n7)cc6)CC5)C4)cc23)ccn1`
Reply: low bin

Task item: Again, but for `COc1cc(-c2n[nH]c3ccc(NC(=O)[C@]4(SC)CCN(CC(=O)N5CC=C(c6ccc(-c7ncccn7)cc6)CC5)C4)cc23)ccn1`
Reply: mid bin

Task item: Again, but for `CS[C@@]1(C(=O)Nc2ccc3[nH]nc(-c4ccnc(OC(C)C)c4)c3c2)CCN(CC(=O)N2CC=C(c3ccc(-c4ncn(C)n4)cc3)CC2)C1`
Reply: mid bin

Task item: Again, but for `CC(C)Oc1ccc(-c2n[nH]c3ccc(NC(=O)[C@]4(S(C)(=O)=O)CCN(CC(=O)N5CC=C(c6ccc(-c7ncn(C)n7)cc6)CC5)C4)cc23)cn1`
Reply: high bin

New cases:
Task item: Looking at `CS[C@@]1(C(=O)Nc2ccc3[nH]nc(-c4ccc(F)cc4)c3c2)CCN(CC(=O)N2CC=C(c3ncc(-c4ncccn4)s3)CC2)C1` , which class would you pick?
Reply: high bin

Task item: Again, but for `CS[C@@]1(C(=O)Nc2ccc3[nH]nc(-c4ccc(OC(C)C)nc4)c3c2)CCN(CC(=O)N2CC=C(c3ccc(-c4ncccn4)cc3)CC2)C1`
Reply: high bin

Task item: Again, but for `CS[C@@]1(C(=O)Nc2ccc3[nH]nc(-c4ccc(F)cc4)c3c2)CCN(CC(=O)N2CC=C(c3ccc(-c4ncccn4)cc3F)CC2)C1`
Reply: high bin

Task item: Again, but for `O=C(Nc1ccc2[nH]nc(-c3ccncc3)c2c1)[C@@H]1CCN(CC(=O)N2CCN(c3ccc(-c4ncccn4)cc3)CC2)C1`
Reply: low bin

Task item: Again, but for `CCNc1nnc(-c2ccc(C3=CCN(C(=O)CN4CC[C@@](SC)(C(=O)Nc5ccc6[nH]nc(-c7ccc(F)cc7)c6c5)C4)CC3)cc2)o1`
Reply: low bin

Task item: Again, but for `CS[C@@]1(C(=O)Nc2ccc3[nH]nc(-c4ccc(F)cc4)c3c2)CCN(CC(=O)N2CCC(c3ccc(-c4ncccn4)cc3)CC2)C1`
Reply: high bin

Task item: Again, but for `CS[C@@]1(C(=O)Nc2ccc3[nH]nc(-c4ccc5c(c4)OCO5)c3c2)CCN(CC(=O)N2CC=C(c3ccc(-c4ncccn4)cc3)CC2)C1`
Reply: low bin

Task item: Again, but for `CS[C@@]1(C(=O)Nc2ccc3[nH]nc(-c4ccc(F)cc4)c3c2)CCN(CC(=O)N2CCN(c3ccc(-c4ncccn4)cc3)CC2)C1`
Reply: mid bin

Task item: Again, but for CS[C@@]1(C(=O)Nc2ccc3[nH]nc(-c4ccc(OC(C)C)nc4)c3c2)CCN(CC(=O)N2CC=C(c3ccc(-c4ncn(C)n4)cc3)CC2)C1 [MK-8353]
Reply: low bin

====

- method.summary: Protein binding in monkey plasma at 10 uM
- Assay type: ADME, cell-free, Macaca mulatta
- measurement.context: rhesus monkey, read-out: PPB
experimental.readout: fraction unbound at 10 µM

Task item: Looking for the measured fraction unbound at 10 µM of CS[C@@]1(C(=O)Nc2ccc3[nH]nc(-c4ccc(OC(C)C)nc4)c3c2)CCN(CC(=O)N2CC=C(c3ccc(-c4ncn(C)n4)cc3)CC2)C1 [MK-8353] , can you help?
Reply: < 0.01

====

- method.summary: Apparent permeability across basolateral to apical side in human Caco2 cells
- Type: ADME, cell-based
- measurement.context: Caco-2, read-out: permeability
experimental.readout: Papp B→A (×10⁻⁶ cm/s)
Give bare numbers, in ×10⁻⁶ cm/s.

Task item: Looking for the measured Papp B→A of `CS[C@@]1(C(=O)Nc2ccc3[nH]nc(-c4ccc(OC(C)C)nc4)c3c2)CCN(CC(=O)N2CC=C(c3ccc(-c4ncn(C)n4)cc3)CC2)C1` , can you help?
Reply: 40

====

- method.summary: Oral bioavailability in Sprague-Dawley rat at 10 mg/kg
- Format: ADME, organism-based
- measurement.context: in vivo
experimental.readout: bioavailability (%)
Give bare numbers, in %.

Task item: Looking for the measured bioavailability of `CS[C@@]1(C(=O)Nc2ccc3[nH]nc(-c4ccc(OC(C)C)nc4)c3c2)CCN(CC(=O)N2CC=C(c3ccc(-c4ncn(C)n4)cc3)CC2)C1` , can you help?
Reply: 50

====

- method.summary: AUC in dog at 10 mg/kg
- Type: ADME, organism-based, Canis lupus familiaris
- measurement.context: in vivo
experimental.readout: AUC (µM·h)
Give bare numbers, in µM·h.

Task item: Looking for the measured AUC of `CS[C@@]1(C(=O)Nc2ccc3[nH]nc(-c4ccc(F)cc4)c3c2)CCN(CC(=O)N2CC=C(c3ccc(-c4ncccn4)cc3)CC2)C1` , can you help?
Reply: 17

====

- method.summary: Clearance in dog hepatocytes assessed per million cells
- Type: ADME, cell-based, Canis lupus familiaris, Hepatocyte
experimental.readout: CLH (µL/min)
Numbers only, in µL/min.

Task item: Looking for the measured CLH of `CS[C@@]1(C(=O)Nc2ccc3[nH]nc(-c4ccc(F)cc4)c3c2)CCN(CC(=O)N2CC=C(c3ccc(-c4ncccn4)cc3)CC2)C1` , can you help?
Reply: 7

====

- method.summary: Mean residence time in CD1 mouse at 10 mg/kg, iv
- Assay type: ADME, organism-based
- measurement.context: in vivo
experimental.readout: MRT (h)
One number for each entry, in h.

Task item: Looking for the measured MRT of `CS[C@@]1(C(=O)Nc2ccc3[nH]nc(-c4ccc(OC(C)C)nc4)c3c2)CCN(CC(=O)N2CC=C(c3ccc(-c4ncn(C)n4)cc3)CC2)C1` , can you help?
Reply: 1.5

====

- tested.on: Cytochrome P450 3A4 (Homo sapiens)
- Sequence (P08684 whole entry): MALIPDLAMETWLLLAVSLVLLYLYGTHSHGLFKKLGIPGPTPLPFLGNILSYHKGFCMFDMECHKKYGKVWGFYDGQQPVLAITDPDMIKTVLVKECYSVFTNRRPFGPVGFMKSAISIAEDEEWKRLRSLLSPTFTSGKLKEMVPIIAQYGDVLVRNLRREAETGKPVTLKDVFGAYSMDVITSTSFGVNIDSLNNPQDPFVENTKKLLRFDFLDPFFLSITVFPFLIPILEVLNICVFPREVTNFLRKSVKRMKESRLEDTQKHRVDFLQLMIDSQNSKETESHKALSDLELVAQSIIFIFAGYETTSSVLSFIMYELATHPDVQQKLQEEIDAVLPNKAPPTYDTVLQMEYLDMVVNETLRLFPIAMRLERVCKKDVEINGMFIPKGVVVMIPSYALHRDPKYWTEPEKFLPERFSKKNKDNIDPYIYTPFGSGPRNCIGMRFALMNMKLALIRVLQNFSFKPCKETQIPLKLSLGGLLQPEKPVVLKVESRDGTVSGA
- method.summary: Inhibition of CYP3A4 (unknown origin) preincubated followed by substrate addition
- Type: ADME
Would you mind telling me the reported IC50 of each entry?
One number for each entry, in nM.

Task item: Request: IC50, test system Cytochrome P450 3A4 (Homo sapiens), entry `CS[C@@]1(C(=O)Nc2ccc3[nH]nc(-c4ccc5c(c4)OCO5)c3c2)CCN(CC(=O)N2CC=C(c3ccc(-c4ncccn4)cc3)CC2)C1`
Reply: 300

New cases:
Task item: Request: IC50, test system Cytochrome P450 3A4 (Homo sapiens), entry `CS[C@@]1(C(=O)Nc2ccc3[nH]nc(-c4ccc(OC(C)C)nc4)c3c2)CCN(CC(=O)N2CC=C(c3ccc(-c4ncn(C)n4)cc3)CC2)C1`
Reply: 1700

====

- method.summary: Clearance in monkey at 1 mg/kg, iv
- measurement.context: cynomolgus monkey, in vivo
experimental.readout: clearance (mL/min/kg)
Answers are plain numbers, in mL/min/kg.

Task item: Looking for the measured clearance of `CS[C@@]1(C(=O)Nc2ccc3[nH]nc(-c4ccc(OC(C)C)nc4)c3c2)CCN(CC(=O)N2CC=C(c3ccc(-c4ncn(C)n4)cc3)CC2)C1` , can you help?
Reply: 17.9

====

- method.summary: Half life in rat
- Assay type: ADME, organism-based
- measurement.context: in vivo
experimental.readout: half-life (h)
Give bare numbers, in h.

Task item: Looking for the measured half-life of `O=C(Nc1ccc2[nH]nc(-c3ccncc3)c2c1)[C@@H]1CCN(CC(=O)N2CCN(c3ccc(-c4ncccn4)cc3)CC2)C1` , can you help?
Reply: 1.5

====

- tested.on: Cytochrome P450 2C9 (Homo sapiens, UniProt P11712)
- Sequence (P11712 whole entry): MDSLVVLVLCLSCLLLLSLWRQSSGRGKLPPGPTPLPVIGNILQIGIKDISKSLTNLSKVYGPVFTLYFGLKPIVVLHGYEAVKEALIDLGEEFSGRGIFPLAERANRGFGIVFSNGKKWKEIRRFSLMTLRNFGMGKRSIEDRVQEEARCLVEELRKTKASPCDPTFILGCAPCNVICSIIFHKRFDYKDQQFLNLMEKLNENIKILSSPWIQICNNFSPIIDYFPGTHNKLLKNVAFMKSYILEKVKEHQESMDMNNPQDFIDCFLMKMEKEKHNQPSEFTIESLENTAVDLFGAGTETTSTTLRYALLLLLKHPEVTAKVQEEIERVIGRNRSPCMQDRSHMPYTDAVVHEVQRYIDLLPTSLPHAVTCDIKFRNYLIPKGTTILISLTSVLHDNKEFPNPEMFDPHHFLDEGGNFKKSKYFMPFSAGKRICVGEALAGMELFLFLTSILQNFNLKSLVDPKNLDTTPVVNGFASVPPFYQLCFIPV
- method.summary: Inhibition of CYP2C9 (unknown origin) preincubated followed by substrate addition
- Assay type: ADME
experimental.readout: IC50

Task item: Looking for the measured IC50 of `CS[C@@]1(C(=O)Nc2ccc3[nH]nc(-c4ccc(OC(C)C)nc4)c3c2)CCN(CC(=O)N2CC=C(c3ccc(-c4ncn(C)n4)cc3)CC2)C1` , can you help?
Reply: > 5 µM

====

Would you mind telling me the reported log10 of IC50 of each entry?
- tested.on: Mitogen-activated protein kinase 1 (Homo sapiens, UniProt P28482)
- Sequence (P28482 whole entry): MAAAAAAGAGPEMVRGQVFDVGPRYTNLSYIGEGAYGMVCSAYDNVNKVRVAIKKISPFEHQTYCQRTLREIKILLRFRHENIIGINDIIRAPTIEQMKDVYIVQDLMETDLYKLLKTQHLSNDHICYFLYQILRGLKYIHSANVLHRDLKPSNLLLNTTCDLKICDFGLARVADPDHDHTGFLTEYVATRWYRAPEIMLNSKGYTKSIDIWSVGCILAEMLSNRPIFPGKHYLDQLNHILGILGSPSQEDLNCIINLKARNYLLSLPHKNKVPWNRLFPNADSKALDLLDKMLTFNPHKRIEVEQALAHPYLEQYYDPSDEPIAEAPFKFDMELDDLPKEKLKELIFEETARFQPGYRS
- method.summary: Inhibition of ERK2 (unknown origin) using peptide substrate measured after 45 mins by IMAP assay
Response schema: value (number) is log10 of IC50 in units of µM.

Dear colleague, could you please provide log10 of IC50 for the compounds listed below?
1. CS[C@@]1(C(=O)Nc2ccc3[nH]nc(-c4ccc(F)cc4)c3c2)CCN(CC(=O)N2CC=C(c3ncc(-c4ncccn4)s3)CC2)C1
2. CS[C@@]1(C(=O)Nc2ccc3[nH]nc(-c4ccc(F)cc4)c3c2)CCN(CC(=O)N2CCC(c3ccc(-c4ncccn4)cc3)CC2)C1
3. CS[C@@]1(C(=O)Nc2ccc3[nH]nc(-c4ccc5c(c4)OCO5)c3c2)CCN(CC(=O)N2CC=C(c3ccc(-c4ncccn4)cc3)CC2)C1

Reply:
-1.44
-1.64
-1.89
